# ASSAYED_SYSTEM: THOC4 (ALYREF) (UniProt Q86V81 Q86V81:2-257)
# ASSAY: SPR
PARAMETER_MEASURED: binding signal (normalized Rmax)
# output: bare number, implied unit normalized Rmax

# input Requested field: binding signal. Item: GAGUAAACAUUCUGUGUGGAGUC (ssRNA, 2'-OMe all, full PS) [DKLS965031 (SEQ 17)]
# output 0.64

# input Requested field: binding signal. Item: UACCGCGUGCGACCCUCU (ssRNA, 2'-OMe all, full PS) [DKLS784557 (SEQ 10)]
# output 0.49

# input Requested field: binding signal. Item: GCCCGUCUGGCGCAUAGCUA (ssRNA, 2'-OMe all, full PS) [DKLS646683 (SEQ 54)]
# output 0.85

# input Requested field: binding signal. Item: UUGACAGAUUAAGUCCAUUC (ssRNA, 2'-OMe all, full PS) [DKLS675388 (SEQ 51)]
# output 0.15

# input Requested field: binding signal. Item: GGGACGCGGCGCUCGGUCAU (ssRNA, 2'-OMe all, full PS) [DKLS951212 (SEQ 30)]
# output 1.35

# input Requested field: binding signal. Item: GGGCCUCCCGCACUUGAGAU (ssRNA, 2'-OMe all, full PS) [DKLS679059 (SEQ 55)]
# output 0.37
